Cited source for all entries: paper PMC7049685

Target: Rpo41;Mtf1-Δ20 (Saccharomyces cerevisiae;Saccharomyces …, UniProt P13433;P14908 28-1351;1-321, |)
Sequence (P13433 28-1351, stated change not applied, chain 1 of 2): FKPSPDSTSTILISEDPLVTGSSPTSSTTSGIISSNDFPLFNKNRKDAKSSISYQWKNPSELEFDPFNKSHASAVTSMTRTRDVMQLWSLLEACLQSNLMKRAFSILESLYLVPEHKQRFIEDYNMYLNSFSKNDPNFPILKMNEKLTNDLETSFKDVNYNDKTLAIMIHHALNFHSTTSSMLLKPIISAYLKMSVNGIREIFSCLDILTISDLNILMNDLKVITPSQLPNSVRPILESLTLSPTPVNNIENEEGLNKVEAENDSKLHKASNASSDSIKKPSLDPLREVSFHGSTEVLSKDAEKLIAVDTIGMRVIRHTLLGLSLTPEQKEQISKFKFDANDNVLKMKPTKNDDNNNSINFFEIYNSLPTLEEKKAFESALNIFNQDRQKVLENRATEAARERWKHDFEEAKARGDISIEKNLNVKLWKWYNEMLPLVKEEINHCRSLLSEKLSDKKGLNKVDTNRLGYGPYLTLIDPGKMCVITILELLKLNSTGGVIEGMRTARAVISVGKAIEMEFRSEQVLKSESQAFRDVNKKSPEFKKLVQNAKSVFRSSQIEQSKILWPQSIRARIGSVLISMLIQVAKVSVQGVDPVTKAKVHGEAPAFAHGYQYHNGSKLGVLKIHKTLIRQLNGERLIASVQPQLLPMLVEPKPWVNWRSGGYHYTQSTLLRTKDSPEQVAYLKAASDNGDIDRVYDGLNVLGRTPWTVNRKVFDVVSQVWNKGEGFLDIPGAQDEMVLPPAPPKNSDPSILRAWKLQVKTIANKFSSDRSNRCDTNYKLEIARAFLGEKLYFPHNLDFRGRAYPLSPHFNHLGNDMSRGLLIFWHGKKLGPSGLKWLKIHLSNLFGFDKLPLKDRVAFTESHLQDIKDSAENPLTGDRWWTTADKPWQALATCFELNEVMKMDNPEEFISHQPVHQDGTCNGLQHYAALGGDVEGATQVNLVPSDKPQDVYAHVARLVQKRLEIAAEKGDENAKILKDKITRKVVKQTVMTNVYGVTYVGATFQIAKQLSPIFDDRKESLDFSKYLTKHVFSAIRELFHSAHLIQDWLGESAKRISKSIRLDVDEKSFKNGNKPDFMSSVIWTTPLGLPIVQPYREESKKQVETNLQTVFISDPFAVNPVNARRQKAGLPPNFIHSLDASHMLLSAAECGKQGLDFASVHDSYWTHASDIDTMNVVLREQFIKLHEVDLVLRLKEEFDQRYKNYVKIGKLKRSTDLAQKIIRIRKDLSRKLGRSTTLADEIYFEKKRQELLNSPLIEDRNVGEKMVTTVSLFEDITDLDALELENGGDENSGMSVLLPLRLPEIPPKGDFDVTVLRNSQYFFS
Sequence (P14908 1-321, stated change not applied, chain 2 of 2): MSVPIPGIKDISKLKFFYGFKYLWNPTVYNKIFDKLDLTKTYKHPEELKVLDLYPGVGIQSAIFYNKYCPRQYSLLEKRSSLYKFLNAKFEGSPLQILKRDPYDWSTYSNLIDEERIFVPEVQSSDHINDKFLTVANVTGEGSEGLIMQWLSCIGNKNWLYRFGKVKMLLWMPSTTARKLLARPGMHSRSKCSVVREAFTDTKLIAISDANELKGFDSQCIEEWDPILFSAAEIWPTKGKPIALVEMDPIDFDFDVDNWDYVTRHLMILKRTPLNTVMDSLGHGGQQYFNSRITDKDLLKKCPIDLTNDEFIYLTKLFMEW
Assay: fluorescence anisotropy; 10 mM Mg acetate; 50 mM Tris-acetate pH 7.5, 100 mM potassium glutamate, 10 mM magnesium acetate, 0.01% Tween-20, 25 °C; 5 nM TAMRA-DNA
Details: protein: recombinant;recombinant; tags: ;; copies: 1;1; label: TAMRA at 5' end of template strand (strand 2); blunt
measured.metric: Kd (nM)
Numbers only, in nM.

Query string: Using the record for 15S rRNA AA promoter -12 to +8 (dsDNA) DNA 1: TATTATATAAGTAATAAATA DNA 2: TATTTATTACTTATATAATA , state its measured Kd.
Result string: 0.81
